Readings of GI50 for the listed compounds
Test system: SF-268
ASSAY_DETAILS: NCI tumour cell line growth inhibition, 48 h
Calls of active or inactive are those of the source. No stated cut-off is given here; in the data, active = GI50 up to about 1.1 µM and inactive = higher.
PARAMETER_MEASURED: GI50

[O-]c1c2cc(-[n+]3c(-c4ccccc4)cc(-c4ccccc4)cc3-c3ccccc3)cc1CO[C@@H](c1ccccc1)[C@H](c1ccccc1)OCc1cccc(n1)CO[C@@H](c1ccccc1)[C@H](c1ccccc1)OC2 :: 0.0689 µM (active)
COc1c(-c2nc3ccc(N4CCN(C)CC4)cc3[nH]2)cc(OC)c2[nH]c(CO)nc12 :: > 100 µM (inactive)
O=C(O)[C@@H](NS(=O)(=O)c1ccc([N+](=O)[O-])cc1)c1ccccc1 :: > 100 µM (inactive)
CC(C)(C)c1cc(CCC(=O)Nc2ccc(Cl)cc2)nc(NC#N)n1 :: > 100 µM (inactive)
CN(C)Cc1cc(C(=O)/C=C/c2ccc(/C=C/C(=O)c3cc(CN(C)C)c(O)c(CN(C)C)c3)cc2)cc(CN(C)C)c1O :: 27.5 µM (inactive)
COC(=O)Cc1c([C@H]2[C@H](CC(=O)OC)c3ccccc3N2C(C)=O)[nH]c2ccccc12 :: > 100 µM (inactive)
C[C@H](C(=O)C12CC3CC(CC(C3)C1)C2)[C@H](O)c1ccccc1 :: 15.2 µM (inactive)
CCN(CC)Cc1cc(Nc2c3ccccc3nc3c4ccccc4n(C)c23)cc(CN(CC)CC)c1O :: 6.78 µM (inactive)
N#Cc1ccc(/N=C(/NCC(=O)O)Nc2cccc3ccccc23)cc1 :: > 10 µM (inactive)
NS(=O)(=O)c1ccc(NCc2cnc3ccccc3n2)cc1 :: > 100 µM (inactive)
OC1[C@@H]2[C@@H](O)CCCN2C[C@@H](O)[C@H]1O (some centres not stated) :: > 100 µM (inactive)
CCOC(=O)Nc1nc2cc(Cn3cccc3)ccc2[nH]1 :: 8.73 µM (inactive)
COc1cc(C(c2cccc3ccccc23)N2C(=O)CCC2C(=O)NCc2ccccc2)cc(OC)c1OC (configuration not stated) :: > 100 µM (inactive)
O=C1C(Cl)=C(NCCO)C(=O)c2c(O)ccc(O)c21 :: 3.97 µM (inactive)
Cc1ccc(S(=O)(=O)N2CCC(C(=O)O)(c3ccccc3)CC2)cc1 :: > 100 µM (inactive)
NC(=O)C(=CN1C(=O)CC(=O)NC1=S)C(N)=O :: > 100 µM (inactive)
COc1cc(-c2cc(=O)c3c(O)c(CC=C(C)C)c(O)cc3o2)ccc1O :: 24.6 µM (inactive)
O=c1[c-](-c2ccccc2)[se]c(-c2ccccc2)[n+]1-c1ccccc1 :: 5.55 µM (inactive)
CC(=O)c1nc2ccccc2n1CC(=O)c1ccc(Cl)cc1 :: 3.94 µM (inactive)
Nc1ncnc2c1nnn2C1C=C(CO)C(O)C1O (configuration not stated) :: 42.7 µM (inactive)
CCOC(=O)c1c(NC(=O)c2ccccc2)c(C#N)c2n1CCCCC2 :: > 100 µM (inactive)
CCN1CSC(=S)N(CC)C1 :: > 100 µM (inactive)
CC1CC(c2cccc3c2OCO3)=Nc2ccccc2S1 (configuration not stated) :: > 100 µM (inactive)
NC(CCP(=O)(O)CCC1C=CC=CC1)C(=O)O (configuration not stated) :: > 100 µM (inactive)
CC(=O)SCCC(NC(=S)Nc1ccccc1)P(=O)(Oc1ccccc1)Oc1ccccc1 (configuration not stated) :: > 100 µM (inactive)
COc1ccc2nc3cc(Cl)ccc3c(NCCCNCCCNc3c4ccc(Cl)cc4nc4ccc(OC)cc34)c2c1 :: 0.0111 µM (active)
Cc1nn(C(=O)c2ccc(Cl)cc2)c2c1C(c1ccccc1)SC(=N)N2 (configuration not stated) :: > 10 µM (inactive)
CCCCOc1ccc(S(=O)(=O)N/C(N)=N/c2ccc(Cl)cc2)cc1 :: 14.3 µM (inactive)
Oc1ccc(SCc2cc(O)c(O)c(O)c2)cc1 :: > 100 µM (inactive)
CC(C)(C)N1CC2(CCCCC2)C1=O :: 99.1 µM (inactive)
C1CC2CN(CCCN3CCOCC3)C(C1)O2 (configuration not stated) :: > 100 µM (inactive)
O=C(N/C(=C\c1ccccc1O)c1nc2ccccc2[nH]1)c1ccccc1 :: 37.3 µM (inactive)

Just for reference, ChEMBL document CHEMBL1201862 is where these values come from.
